Hi there, I'd appreciate the recorded EC50 for every entry that follows.
Biological target: Cholecystokinin receptor type A (Homo sapiens, UniProt P32238)
Assay: Activity at CCK1R (unknown origin) expressed in CHO cells assessed as stimulation of intracellular calcium responses
Format: functional, cell-based
Sequence (P32238 whole entry): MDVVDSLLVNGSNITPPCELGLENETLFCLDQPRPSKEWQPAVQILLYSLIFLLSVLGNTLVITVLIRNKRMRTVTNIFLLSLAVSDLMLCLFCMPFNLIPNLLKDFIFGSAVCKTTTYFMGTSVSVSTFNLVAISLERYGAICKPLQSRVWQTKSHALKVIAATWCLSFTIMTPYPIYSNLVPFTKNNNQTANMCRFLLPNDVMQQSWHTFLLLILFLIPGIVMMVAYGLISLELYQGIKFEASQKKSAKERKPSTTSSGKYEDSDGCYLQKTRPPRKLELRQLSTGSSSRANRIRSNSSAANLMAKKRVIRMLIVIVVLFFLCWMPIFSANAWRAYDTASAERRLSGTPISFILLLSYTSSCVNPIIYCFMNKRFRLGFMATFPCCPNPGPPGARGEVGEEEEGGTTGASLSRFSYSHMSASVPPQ
Give bare numbers, in µM.

CC(C)N(C(=O)CN1C(=O)[C@H](NC(=O)Nc2cccc(C(=O)O)c2)C(=O)N(c2ccccc2)c2ccccc21)c1ccccc1 | 0.0008

With those in mind, consider the next molecule.
Note EC50 for the molecule shown: COc1ccc(N(C)C(=O)CN2C(=O)C(NC(=O)Nc3ccccc3)C(=O)N(c3ccccc3)c3ccccc32)cc1 (configuration not stated)
0.09

====

Target: Cholecystokinin receptor type A (Homo sapiens, UniProt P32238)
Assay type: cell-based
Details: cho
Sequence (P32238 whole entry, looked up): as the sequence (P32238 whole entry) above
Measurement type: IC50 (nM)
Answers are plain numbers, in nM.

Give the reported IC50 for this compound. COc1ccc(N(C)C(=O)CN2C(=O)C(NC(=O)Nc3ccccc3)C(=O)N(c3ccccc3)c3ccccc32)cc1 (stereo unspecified)
151
